Measured values drawn from patent US20110183978A1 for this set.

assay: physchem; settings: pH 2.7, logP (pH 2.7)
Label scheme, based on chromatographic logP: bin 1 (below 1), bin 2 (1 to below 3), bin 3 (3 or more)

The examples below pair each entry with its known result.
Fc1ccc(-c2c(-c3ccncc3)cnn2C2CCCCO2)cc1 (stereo not shown) [[X-1]] = bin 2
CC1(C)OB(c2cn(CCCl)nc2-c2ccc(F)cc2)OC1(C)C [[V-10]] = bin 3
Nc1cc(-c2cn(CC(F)F)nc2-c2ccc(F)cc2)ccn1 [[III-4]] = bin 2
CSc1nccc(-c2c[nH]nc2-c2ccc(F)cc2)n1 [[XXXIX-1]] = bin 2
CC1(C)OB(c2ccnc(NC(=O)CC3CC3)c2)OC1(C)C [[XV-a-5]] = bin 1
Cn1nc(-c2ccc(F)cc2O)c(Br)c1OC(F)F [[VI-c-1]] = bin 3
CC(C)Cn1nc(-c2ccc(F)cc2)c(Br)c1OC(F)F [[VI-b-3]] = bin 3
CC(C)n1cc(-c2ccnc(N)n2)c(-c2ccc(F)cc2)n1 [[III-a-1]] = bin 2
CCn1cc(Br)c(-c2ccc(F)cc2)n1 [[VI-2]] = bin 3

Ask: Sort Cn1cc(-c2ccnc(N)c2)c(-c2ccc(F)cc2)n1 [[III-5]] into one of the categories.
Reply: bin 1
